- assayed.system: HIV Integrase (Human immunodeficiency virus type 1 group M subtype B)
- Construct: 0.26 ng of recombinant integrase was then incubated with the beads
- assay.comment: In vitro activity against integrase, Method B (SPA assay)
- Type: biochemical
- condition.label: read-out: Percent inhibition of HIV Integrase at 70 uM
// reported inhibition at 70 µM for each item listed
I only need the number, in %, no unit after it.

Some entries whose results are on file:
smiles.structure: COc1cc(CN(C)C(=O)/C=C(\O)C(=O)O)ccc1F
inhibition at 70 µM, %: 99

smiles.structure: CN(Cc1cccc(-c2ccc(F)cc2)c1)C(=O)/C=C(\O)C(=O)O
inhibition at 70 µM, %: 98

smiles.structure: O=C(O)/C(O)=C/C(=O)N(CCCc1ccccc1)c1ccc(Cl)cc1
inhibition at 70 µM, %: 88

Problem: Assign inhibition at 70 µM to the following record: O=C(O)/C(O)=C/C(=O)N(Cc1ccc(F)cc1)c1ccc(Cl)cc1
Solution: 92

Problem: Assign inhibition at 70 µM to the following record: CN(Cc1ccc(F)cc1)C(=O)/C=C(\O)C(=O)O
Solution: 97

Problem: Assign inhibition at 70 µM to the following record: O=C(O)/C(O)=C/C(=O)N(Cc1ccc(Cl)cc1)Cc1ccc(Cl)cc1
Solution: 99
